Biological target: human 11β-HSD1 (Homo sapiens, UniProt P28845)
Construct: 100 ug/ml human/mouse liver microsomes; from tissue; host or cells: human liver microsomes
Sequence (P28845 whole entry): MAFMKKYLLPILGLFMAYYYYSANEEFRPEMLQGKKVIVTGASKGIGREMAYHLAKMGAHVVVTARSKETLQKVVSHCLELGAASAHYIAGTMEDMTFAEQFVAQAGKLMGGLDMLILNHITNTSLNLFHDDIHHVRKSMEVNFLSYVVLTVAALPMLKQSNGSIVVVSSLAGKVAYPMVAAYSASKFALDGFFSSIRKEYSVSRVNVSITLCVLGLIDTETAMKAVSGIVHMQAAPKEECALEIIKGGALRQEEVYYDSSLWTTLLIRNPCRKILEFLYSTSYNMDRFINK
Assay: Enzyme activity analysis on human 11β-HSD1 (HTRF cortisol, liver microsomes)
Assay type: biochemical
Settings: first value of cell
Below is a list of entries, each paired with its recorded log10(IC50) value.
READOUT_TYPE: log10(IC50) (log10 of the value in µM)

{"columns": ["MOLECULE", "log10(IC50)"],
 "data": [
  ["NC(=O)C12CC3CC(C1)C(NC(=O)C1(NS(=O)(=O)c4cccc5cccnc45)CCC1)C(C3)C2 (stereo not drawn) [compound 146]", -1.54],
  ["Cc1ccc(S(=O)(=O)NC(C)(C)C(=O)NC2C3CC4CC2CC(C(N)=O)(C4)C3)cc1F (stereo not drawn) [compound 92]", -1.49],
  ["CC(C)(NS(=O)(=O)c1cccc2cccnc12)C(=O)NC1C2CC3CC1CC(O)(C3)C2 (stereo not drawn) [compound 75]", -2.22],
  ["CN(C(C)(C)C(=O)NC1C2CC3CC1CC(C(N)=O)(C3)C2)S(=O)(=O)c1c(Cl)cccc1Cl (stereo not drawn) [compound 192]", -2.10],
  ["CCN(C(C)(C)C(=O)NC1C2CC3CC1CC(C(N)=O)(C3)C2)S(=O)(=O)c1c(F)cccc1F (stereo not drawn) [compound 213]", -2.30],
  ["CN(C1(C(=O)NC2C3CC4CC2CC(C(N)=O)(C4)C3)CCC1)S(=O)(=O)c1ccccc1N (stereo not drawn) [compound 222]", -2.30],
  ["CC(C)(NS(=O)(=O)c1cccnc1Cl)C(=O)NC1C2CC3CC(C2)CC1C3 (stereo not drawn) [compound 50]", -0.98],
  ["Cc1ccc(S(=O)(=O)NC2(C(=O)NC3C4CC5CC3CC(C(N)=O)(C5)C4)CCC2)cc1F (stereo not drawn) [compound 151]", -0.74],
  ["CCN(C(C)(C)C(=O)NC1C2CC3CC1CC(C(N)=O)(C3)C2)S(=O)(=O)c1cccc(Cl)c1Cl (stereo not drawn) [compound 212]", -1.62],
  ["NC(=O)C12CC3CC(C1)C(NC(=O)C1(NS(=O)(=O)c4cccc(Cl)c4Cl)CCC1)C(C3)C2 (stereo not drawn) [compound 158]", -1.74],
  ["CCN(C(C)(C)C(=O)NC1C2CC3CC1CC(C(N)=O)(C3)C2)S(=O)(=O)c1ccccc1C(F)(F)F (stereo not drawn) [compound 210]", -2.22],
  ["CC(C)(NS(=O)(=O)c1ccc(F)c(F)c1F)C(=O)NC1C2CC3CC1CC(C(N)=O)(C3)C2 (stereo not drawn) [compound 116]", -1.46],
  ["CC(C)(NS(=O)(=O)c1cccc(C(F)(F)F)c1)C(=O)NC1C2CC3CC1CC(C(N)=O)(C3)C2 (stereo not drawn) [compound 127]", -1.21],
  ["COc1ccc(OC)c(S(=O)(=O)NC(C)(C)C(=O)NC2C3CC4CC(C3)CC2C4)c1 (stereo not drawn) [compound 48]", -1.70],
  ["Cc1ccccc1S(=O)(=O)NC1(C(=O)NC2C3CC4CC2CC(C(N)=O)(C4)C3)CCCC1 (stereo not drawn) [compound 169]", -1.52]
]}
